- Test system: 786-0
- protocol: NCI tumour cell line growth inhibition, 48 h
Active and inactive are the calls of the source. No stated cut-off is given here; in the data, active = GI50 up to about 1.1 µM and inactive = higher. Where a SMILES comes first, the peptide text is derived from it. The star is where a group is joined. Fmoc = O=C(OCC1c2ccccc2-c2ccccc21)*; Boc = CC(C)(C)OC(=O)*
In this exercise, the only acceptable responses are label 1 (active), label 0 (inactive)

Exam item: Query: recorded result category for O=C(Nc1nc2ncn(CCI)c2c(=O)[nH]1)c1ccccc1 in this test
Marked response: label 0

Exam item: Query: recorded result category for COc1ccc2[nH]c3c(c2c1)CCn1c-3nc2ccccc2c1=O in this test
Marked response: label 0

Exam item: Query: recorded result category for NC(=O)C1CCN(Cc2c(Cl)c(Cl)c(CN3CCC(C(N)=O)CC3)c(Cl)c2Cl)CC1 in this test
Marked response: label 0

Exam item: Query: recorded result category for CC(C(=O)NCNC(=O)c1ccccc1)C(=O)NCc1ccccc1 (stereo not given) in this test
Marked response: label 0

Exam item: Query: recorded result category for N=C(N)NCCCS(=O)(=O)Nc1ccc(Nc2c3ccccc3nc3cc([N+](=O)[O-])ccc23)cc1 in this test
Marked response: label 0

Exam item: Query: recorded result category for CC[N+]1(C)CCC(O)(c2ccc(Cl)c(Cl)c2)C(C(=O)c2ccc(Cl)c(Cl)c2)C1 (stereo not given) in this test
Marked response: label 0

Exam item: Query: recorded result category for COC(=O)C1(Cc2ccc3c(c2)CCC3)Cc2cc3c(cc2C1)CCC3 in this test
Marked response: label 0

Exam item: Query: recorded result category for CC(C)(C)OC(=O)CN1CCNCCNCC1 in this test
Marked response: label 0

Exam item: Query: recorded result category for C=CCN1/C(=C2\SC(=S)N(c3ccc(C)cc3)C2=O)Sc2c1ncn(C)c2=O in this test
Marked response: label 0

Exam item: Query: recorded result category for Cn1c2c3c(F)c(F)ccc3nc-2cc2ccccc21 in this test
Marked response: label 1

Exam item: Query: recorded result category for CC1=[N+]([O-])c2ccccc2C(=O)C1=O in this test
Marked response: label 0

Exam item: Query: recorded result category for Cc1c(-c2coc(-c3ccc(Cl)cc3)n2)c(=O)n(-c2ccccc2)n1C in this test
Marked response: label 0

Exam item: Query: recorded result category for CCNC(=S)NNC(=O)c1csc(NC(=S)NC2CCCCC2)n1 in this test
Marked response: label 0

Exam item: Query: recorded result category for CSC1=NN(c2ccccc2)C(=O)C1=C(SC)SC in this test
Marked response: label 0

Exam item: Query: recorded result category for COc1ccc2c(c1)C1c3ccccc3CCN1CCC2 (stereo not given) in this test
Marked response: label 0

Exam item: Query: recorded result category for BrC(=C(c1ccc(OC2CCCCO2)cc1)c1ccc(OC2CCCCO2)cc1)c1ccccc1 (stereo not given) in this test
Marked response: label 0

Exam item: Query: recorded result category for CC(C)(C)OC(=O)NCCCCC(NC(=O)OCC1c2ccccc2-c2ccccc21)C(=O)N1CCCC1C(=O)NCC(N)=O (stereo not drawn) (Fmoc-Lys(Boc)-Pro-Gly-NH2; configuration not given here) in this test
Marked response: label 0

Exam item: Query: recorded result category for CCOC(=O)C1=C(C)N(c2ccc(C)cc2)C2(O)C=CC(O)=C3C(=O)c4ccccc4C(=O)C312 (stereo not given) in this test
Marked response: label 0

Exam item: Query: recorded result category for COc1ccc(C2C(N)=NCC2c2ccccn2)cc1 (stereo not given) in this test
Marked response: label 0

Exam item: Query: recorded result category for CCOC(=O)C(SCCO)C(C(=O)OCC)n1cnc2c(=O)[nH]c(NC(C)=O)nc21 (stereo not given) in this test
Marked response: label 0

Exam item: Query: recorded result category for CN(C)CCCN1c2ccc3ccccc3c2Sc2cccc(Cl)c21 in this test
Marked response: label 0

Exam item: Query: recorded result category for CC12CC3(C)CC(C)(C1)CC(N=[N+]=[N-])(C2)C3 in this test
Marked response: label 0

Exam item: Query: recorded result category for COc1ccc(OC)c(/C=N/N=C(\N)NO)c1 in this test
Marked response: label 0

Exam item: Query: recorded result category for S=c1nc(Nc2ccc(Br)cc2)c2c3c(sc2[nH]1)CN(N1CCc2c(sc4[nH]c(=S)nc(Nc5ccc(Br)cc5)c24)C1)CC3 in this test
Marked response: label 0

Exam item: Query: recorded result category for COc1c(O)c(O)c2c(c1O)C(=O)c1cc(C)cc(O)c1C2=O in this test
Marked response: label 0

Exam item: Query: recorded result category for CS(=O)(=O)OC1CCN(C2(c3cccc(O)c3)CCCCC2)CC1 in this test
Marked response: label 0

Exam item: Query: recorded result category for CC(=O)Oc1c2ccsc2c(OC(C)=O)c2ccsc12 in this test
Marked response: label 0

Exam item: Query: recorded result category for CCn1cc2c(=O)n3ncn(-c4ccc(Br)cc4)c3nc2n1 in this test
Marked response: label 0

Exam item: Query: recorded result category for CCOC(=O)C1=C(Nc2ccc(Cl)c(Cl)c2)OC/C1=N\NS(=O)(=O)c1ccc(C)cc1 in this test
Marked response: label 0

Exam item: Query: recorded result category for S=c1sc2cscc2s1 in this test
Marked response: label 0

Exam item: Query: recorded result category for O=C1c2cccc3cc([N+](=O)[O-])cc(c23)C(=O)N1CCNCCNCCNCCN1C(=O)c2cccc3cc([N+](=O)[O-])cc(c23)C1=O in this test
Marked response: label 1

Exam item: Query: recorded result category for C=C1CC(c2ccc(OCCCN3C(=O)c4ccccc4C3=O)c(OC)c2)OC1=O (stereo not given) in this test
Marked response: label 0

Exam item: Query: recorded result category for CO/N=C(/C(=O)OC)c1ccccc1COc1ccccc1C(F)(F)F in this test
Marked response: label 0

Exam item: Query: recorded result category for FC(F)(F)c1cc(Cl)cnc1N/N=C(/c1ccccc1)c1ccccn1 in this test
Marked response: label 0

Exam item: Query: recorded result category for CC(=O)n1nc(-c2ccc3ccccc3c2)nc1C in this test
Marked response: label 0

Exam item: Query: recorded result category for CCOC(=O)[C@@H]1ON2O[C@@H](OC3CCCC3(c3ccccc3)c3ccccc3)C[C@H]3OC(=O)[C@@H]1C32 (stereo not given in full) in this test
Marked response: label 0

Exam item: Query: recorded result category for CC1=CCC[C@@](C)(O)[C@@H]2C[C@H]3C(CSc4ccccc4)C(=O)O[C@H]3[C@@H](O2)[C@H](C)CCC1 (stereo not given in full) in this test
Marked response: label 0

Exam item: Query: recorded result category for Oc1c(NCn2nc(CCCCCCCCc3nn(CNc4ccc5ccccc5c4O)c(=S)o3)oc2=S)ccc2ccccc12 in this test
Marked response: label 0

Exam item: Query: recorded result category for COc1cc2c3cc1Oc1c(OC)c(OC)cc4c1C(=NCC4)Cc1ccc(cc1)Oc1cc(ccc1O)C[C@H]3N(C)CC2 in this test
Marked response: label 0

Exam item: Query: recorded result category for Clc1ccc2c(Cl)ncnc2c1I in this test
Marked response: label 0

====

- Test system: OVCAR-4
- protocol: NCI tumour cell line growth inhibition, 48 h
Calls of active or inactive are those of the source. Rule as the data show it: active = GI50 up to about 1.1 µM and inactive = higher.
For each entry below, report its GI50 value.

Exam item: Return reported GI50. Input compound: CCOC(=O)C1=C(C)NC(C)=C(C(=O)OCC)C1c1ccc(Cl)cc1
Marked response: 12.5 µM (inactive)

Exam item: Return reported GI50. Input compound: CCN(CC)C(c1ccc(N(C)C)cc1)C(c1ccc(N(C)C)cc1)N(CC)CC (stereo unspecified)
Marked response: 12.9 µM (inactive)

Exam item: Return reported GI50. Input compound: CC(=O)C(N1CCCCC1)C(O)(C(F)(F)F)C(F)(F)F (stereo unspecified)
Marked response: > 100 µM (inactive)

Exam item: Return reported GI50. Input compound: NC(=O)COc1c(Br)cc(Br)cc1Br
Marked response: 27.7 µM (inactive)

Exam item: Return reported GI50. Input compound: CC(C)(C)OC(=O)CN1CCNCCNCC1
Marked response: > 100 µM (inactive)

Exam item: Return reported GI50. Input compound: CN(C)c1ccc(/C=N/c2ccc(Oc3ccc(Cl)cc3)c(Cl)c2)cc1
Marked response: 22.1 µM (inactive)

====

- System: CCRF-CEM
- protocol: NCI tumour cell line growth inhibition, 48 h
Activity calls are given as the source filed them. Rule as the data show it: active = GI50 up to about 1.1 µM and inactive = higher.
In this exercise, the only acceptable responses are 1 (yes) (active), 0 (no) (inactive)

Exam item: Query: recorded result category for N/N=C1\C(=O)N(C2CCCCCC2)C(=O)C1C(=O)NC1CCCCCC1 (centres undefined) in this test
Marked response: 0 (no)

Exam item: Query: recorded result category for CC#CC(O)(C(=O)OC1CC2CCC(C1)N2C)C1CCCC1 (centres undefined) in this test
Marked response: 0 (no)

Exam item: Query: recorded result category for COc1ccc(C2C(N)=NCC2c2ccccn2)cc1 (centres undefined) in this test
Marked response: 0 (no)

Exam item: Query: recorded result category for CSc1cnc2ccccc2c1SC1CN(Cc2ccccc2)c2ccccc2C1=O (centres undefined) in this test
Marked response: 0 (no)

Exam item: Query: recorded result category for O=C1c2cccc3cccc(c23)C(=O)N1CCCNCCCNCCCCNCCCNCCCN1C(=O)c2cccc3cccc(c23)C1=O in this test
Marked response: 1 (yes)

Exam item: Query: recorded result category for N#CCCN(CCN(C(=O)Nc1ccccc1)c1ccccc1)C(=O)Nc1ccccc1 in this test
Marked response: 0 (no)

Exam item: Query: recorded result category for COC1=CC(=O)c2c(cc(COP(=O)(OCC3OC(n4cc(F)c(=O)[nH]c4=O)CC3O)N(C)CCCCCl)n2C)C1=O (centres undefined) in this test
Marked response: 1 (yes)

Exam item: Query: recorded result category for CCOC(=O)c1nc2ccc(C(F)(F)F)cc2nc1Nc1ccc(Cl)c(Cl)c1 in this test
Marked response: 0 (no)

Exam item: Query: recorded result category for CN(C)C(=S)/N=c1\ss/c(=N\S(=O)(=O)c2ccccc2)n1-c1ccccc1 in this test
Marked response: 1 (yes)

Exam item: Query: recorded result category for O=C(NCCc1ccc(F)cc1)c1cc(/C=C/c2cc(O)ccc2O)ccc1O in this test
Marked response: 0 (no)

Exam item: Query: recorded result category for CC1(C)CC2=NOS3=C2C(=NO3)C1c1ccccn1 (centres undefined) in this test
Marked response: 0 (no)

Exam item: Query: recorded result category for C#CC1(O)CCC2C3CCc4cc(Oc5nc(F)nc(-c6c7ccccc7c7sc8ccccc8n67)n5)ccc4C3CC[C@@]21C (some centres undefined) in this test
Marked response: 0 (no)

Exam item: Query: recorded result category for COC(=O)[C@@H]1c2[nH]c3ccccc3c2C[C@@H]2c3ccccc3NC(=O)[C@@H]21 in this test
Marked response: 0 (no)

Exam item: Query: recorded result category for COC(=O)c1cc(C)ccc1CC(Cc1cccc(C)c1)C(=O)OC (centres undefined) in this test
Marked response: 0 (no)

Exam item: Query: recorded result category for O=c1c(C(c2ccc3c(c2)Cc2ccccc2-3)c2c(O)oc3ccccc3c2=O)c(O)oc2ccccc12 in this test
Marked response: 0 (no)

Exam item: Query: recorded result category for CC(C)[Si](OC12CCC(CC1O)CC2CO)(C(C)C)C(C)C (centres undefined) in this test
Marked response: 0 (no)

Exam item: Query: recorded result category for S=c1nc(Nc2ccc(Br)cc2)c2c3c(sc2[nH]1)CN(N1CCc2c(sc4[nH]c(=S)nc(Nc5ccc(Br)cc5)c24)C1)CC3 in this test
Marked response: 0 (no)

Exam item: Query: recorded result category for N=C(N)NCCCS(=O)(=O)Nc1ccc(Nc2c3ccccc3nc3cc([N+](=O)[O-])ccc23)cc1 in this test
Marked response: 0 (no)

Exam item: Query: recorded result category for Cc1cc(C)nc(NS(=O)(=O)c2ccc(Nc3c4ccccc4nc4c(C(=O)Nc5ccc(S(N)(=O)=O)cc5)cccc34)cc2)n1 in this test
Marked response: 0 (no)
